- Tested target: BSA (Bos taurus)
- Construct: purchased Sigma Aldrich
- Test summary: BSA interaction, fluorescence quenching (Stern–Volmer)
- Format: binding, bovine
- Measurement context: whole number printed in brackets after n
Endpoint: number of binding sites n, rounded (in brackets)

Molecule	Tested target	Obs value
Cc1ccc(-c2ccccn2)[c]([Au+][S]C(=S)N(C)C)c1.F[P-](F)(F)(F)(F)F [Complex C1, [Au(tpy)(dmdtc)] PF6]	BSA (Bos taurus)	2
F[P-](F)(F)(F)(F)F.S=C([S][Au+][c]1ccccc1-c1ccccn1)N(Cc1ccccc1)Cc1ccccc1 [Complex C6, [Au(ppy)(dbdtc)]PF6]	BSA (Bos taurus)	1
CCN(CC)C(=S)[S][Au+][c]1cc(C)ccc1-c1ccccn1.F[P-](F)(F)(F)(F)F [Complex C3, [Au(tpy)(dedtc)]PF6]	BSA (Bos taurus)	1
CN(C)C(=S)[S][Au+][c]1ccccc1-c1ccccn1.F[P-](F)(F)(F)(F)F [Complex C2, [Au(ppy)(dmdtc)]PF6]	BSA (Bos taurus)	1
